MEASUREMENT TARGET: recombinant human tissue transglutaminase (His6-rh-TG2) (Homo sapiens)
Sequence (P21980 whole entry): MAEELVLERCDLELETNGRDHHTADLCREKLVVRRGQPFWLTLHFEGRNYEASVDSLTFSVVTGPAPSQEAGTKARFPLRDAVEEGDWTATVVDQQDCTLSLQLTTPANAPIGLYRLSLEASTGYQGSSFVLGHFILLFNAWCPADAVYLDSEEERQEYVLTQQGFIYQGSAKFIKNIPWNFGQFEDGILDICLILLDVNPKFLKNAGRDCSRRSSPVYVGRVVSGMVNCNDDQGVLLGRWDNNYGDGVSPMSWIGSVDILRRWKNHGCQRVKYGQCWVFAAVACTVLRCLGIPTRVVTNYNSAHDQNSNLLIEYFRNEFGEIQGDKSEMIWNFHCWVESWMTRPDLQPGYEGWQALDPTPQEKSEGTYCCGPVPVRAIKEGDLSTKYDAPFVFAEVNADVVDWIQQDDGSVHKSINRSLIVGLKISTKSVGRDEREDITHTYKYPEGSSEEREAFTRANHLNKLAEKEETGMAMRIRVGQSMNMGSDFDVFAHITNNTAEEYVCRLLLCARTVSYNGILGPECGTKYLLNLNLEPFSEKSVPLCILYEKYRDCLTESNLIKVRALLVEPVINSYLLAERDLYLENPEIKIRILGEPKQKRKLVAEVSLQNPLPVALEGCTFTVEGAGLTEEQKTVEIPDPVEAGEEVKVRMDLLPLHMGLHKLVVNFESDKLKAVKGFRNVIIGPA
ASSAY: Inactivation of human tissue transglutaminase, fluorescence assay, IC50
Format: biochemical
DETAILS: Table 1; 5 min preincubation, 37° C.
*1 amine or outer side, *2 acyl side, *3 side chain or, on linkers, in order; H or OH if unused. Where a SMILES comes first, the peptide text is derived from it. [ ]: non-standard residue; d: D form. The star is where a group is joined. Nle(5E-ene,6-CO2Et) = CCOC(=O)/C=C/CC[C@H](N)C(=O)O; X7 = O=C(/C=C/CC[C@H](N[*:1])C(=O)[*:2])OCc1ccccc1; Tic = O=C(O)[C@@H]1Cc2ccccc2CN1; Cbz = O=C(OCc1ccccc1)*
PROPERTY LABEL: pIC50
Quick note: pIC50 values are minus log10 of concentrations in mol/L.

Worked set:
CC(=O)NCCC(=O)N1CCCC(C(=O)C(CC/C=C/C(=O)OC(C)C)N2Cc3nc[nH]c3CC2C(=O)NC(CNC(N)=O)C(=O)NC(CC(C)C)C(=O)N2CCCC2C(=O)NC(Cc2ccc(Oc3ccc(O)cc3)cc2)C(=O)O)C1 (centres unmarked) | 5.40
CCOC(=O)C=CC(=O)CC[C@H](NC(=O)OCc1ccccc1)C(=O)N[C@H](C(=O)N1CCC[C@H]1C(=O)N[C@@H](CC(C)C)C(=O)OC)C(C)C | 4.74
COC(=O)[C@H](CC(C)C)NC(=O)[C@@H]1Cc2ccccc2CN1C(=O)[C@H](CCC(N)=O)NC(=O)[C@H](CC/C=C/C(=O)OCc1ccccc1)NC(=O)[C@@H]1CCCN1C(=O)[C@H](CCC(N)=O)NC(=O)[C@@H]1CCCN1C(=O)OCc1ccccc1 [Compound 41] (Cbz-PQP[X7]Q[Tic]L-OMe) | 6.67
CCOC(=O)/C=C/CC[C@H](NC(=O)OCc1ccccc1)C(=O)N[C@@H](CCC(N)=O)C(=O)N1CCC[C@H]1C(=O)N[C@@H](CC(C)C)C(=O)OC [Compound 20] (Cbz-[Nle(5E-ene,6-CO2Et)]QPL-OMe) | 5.70
CCOC(=O)/C=C/CC[C@H](NC(=O)OCc1ccccc1)C(=O)N[C@@H](CCC(N)=O)C(=O)N1CCC[C@H]1C(=O)N[C@@H](Cc1ccc(O)cc1)C(=O)OC [Compound 19] (Cbz-[Nle(5E-ene,6-CO2Et)]QPY-OMe) | 5.62
COC(=O)/C=C/CC[C@H](NC(=O)OCc1ccccc1)C(=O)N[C@@H](CCC(N)=O)C(=O)N1CCC[C@H]1C(=O)OC | 6.46

Prompt line: Recorded pIC50 of CCOC(=O)/C=C/CC[C@H](NC(=O)OCc1ccccc1)C(=O)N[C@@H](Cc1ccccc1)C(=O)OC , please.
Response line: 5.10

Prompt line: Entry under review: CCOC(=O)/C=C/CC[C@H](NC(=O)OCc1ccccc1)C(=O)N[C@@H](CCC(N)=O)C(=O)N1CCC[C@H]1C(=O)N[C@@H](CC(C)C)C(=O)OC [Compound 2] (Cbz-[Nle(5E-ene,6-CO2Et)]QPL-OMe) . Reported pIC50?
Response line: 7.70

Prompt line: What value of measured pIC50 is listed for CCOC(=O)/C=C/CC[C@@H](C(=O)N[C@H](C(=O)N1CCC[C@H]1C(=O)OC)C(C)C)N1CCCC1=O ?
Response line: 4.82

Prompt line: Give its pIC50 value. Item: COC(=O)/C=C/CC[C@H](NC(C)=O)C(=O)N[C@@H](Cc1ccc(F)cc1)C(=O)N1CCC[C@H]1C(=O)N[C@@H](CC(C)C)C(=O)OC
Response line: 5.96

Prompt line: Entry COC(=O)/C=C/CC[C@H](NC(C)=O)C(=O)N[C@@H](CCC(N)=O)C(=O)N[C@@H](CCC(=O)O)C(=O)OC has what pIC50?
Response line: 5.68

Prompt line: Fill in: pIC50 of COC(=O)/C=C/CC[C@H](NC(=O)OCc1ccccc1)C(=O)N[C@@H](Cc1ccccc1)C(=O)N1CCC[C@H]1C(=O)N[C@@H](CC(C)C)C(=O)OC is ___
Response line: 5.82

Prompt line: GET /values?readout=pIC50&item= CCOC(=O)C=CC(=O)CC[C@H](NC(C)=O)C(=O)N[C@@H](CCC(N)=O)C(=O)N1CCC[C@H]1C(=O)N[C@@H](CC(C)C)C(=O)OC
Response line: 7.15

Prompt line: Please give the measured pIC50 for this compound: COC(=O)/C=C/CC[C@H](NC(=O)OCc1ccccc1)C(=O)N[C@@H](Cc1ccc(F)cc1)C(=O)N1CCC[C@H]1C(=O)N[C@@H](CC(C)C)C(=O)OC
Response line: 6.06
